Values from the supplement of paper PMC10126150

- Test system: ATP;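 also: ATP exposure 15 min at 22 °C before imaging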
- method: switch fluorescence ratio, 500 uM ATP over buffer (Cy3 cluster intensity, sum of 5 cycles each) (fold (ratio)); higher = stronger signal-on switching upon ATP binding; sequences stand for … in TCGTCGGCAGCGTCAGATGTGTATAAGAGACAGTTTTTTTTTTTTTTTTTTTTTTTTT…TC
- condition label: aptamer strand: ATP DNA aptamer (quencher-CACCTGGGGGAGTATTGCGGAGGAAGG + anchor), 100 nM annealed; ATP concentration: 500 uM
Listed here are sequences together with their documented switch fluorescence ratio.
assay endpoint: switch fluorescence ratio

chain sequence	system	assay endpoint	result
TGTTGCTTCG	ATP	switch fluorescence ratio	1.03
TCCGTCAGCA	ATP	switch fluorescence ratio	4.04
GAATTGGTAA	ATP	switch fluorescence ratio	1.01
CAGAAGTTTG	ATP	switch fluorescence ratio	1
CCGGGTTTGG	ATP	switch fluorescence ratio	0.984
CTTGCTTGAG	ATP	switch fluorescence ratio	1
GGGTGTTGAC	ATP	switch fluorescence ratio	0.993
AAATGCGGTA	ATP	switch fluorescence ratio	1
GGGCTTTAAT	ATP	switch fluorescence ratio	0.992
TTGCTTTAAT	ATP	switch fluorescence ratio	0.988
TCAGATGTCT	ATP	switch fluorescence ratio	1.03
AGTATGGCGG	ATP	switch fluorescence ratio	0.975
ATGTATTTGG	ATP	switch fluorescence ratio	1.01
CCGGAAGACG	ATP	switch fluorescence ratio	1.39
ACTGAGTTTA	ATP	switch fluorescence ratio	1.02
CGTGCAAAGA	ATP	switch fluorescence ratio	1.77
ATGTGAAAGG	ATP	switch fluorescence ratio	1.02
CGGCAGCTGA	ATP	switch fluorescence ratio	1
GTTAACCGGA	ATP	switch fluorescence ratio	1.01
TAGAAAAAGA	ATP	switch fluorescence ratio	0.988
GCATCATTTA	ATP	switch fluorescence ratio	1.01
GATGGTGTGC	ATP	switch fluorescence ratio	1.15
GCGGTATTCT	ATP	switch fluorescence ratio	1
AAAGCTTGAT	ATP	switch fluorescence ratio	1.01
GACATGGCGG	ATP	switch fluorescence ratio	1.01
GGATTAGTGT	ATP	switch fluorescence ratio	0.987
GTTTGAGGGC	ATP	switch fluorescence ratio	0.985
TCACGGTGCT	ATP	switch fluorescence ratio	1.15
TTTTGTAGTG	ATP	switch fluorescence ratio	0.988
TGGGGATTGG	ATP	switch fluorescence ratio	1.17
ACGTGCAATT	ATP	switch fluorescence ratio	1.37
CGTGGTTGCG	ATP	switch fluorescence ratio	0.962
ACACCGTCTA	ATP	switch fluorescence ratio	1.11
GATACCATGG	ATP	switch fluorescence ratio	0.985
AGTAGGCGGT	ATP	switch fluorescence ratio	0.993
AAGCGCATTT	ATP	switch fluorescence ratio	1.05
AAATGCAGGT	ATP	switch fluorescence ratio	0.991
AAGCAGGGGG	ATP	switch fluorescence ratio	0.995
CATGAGGTTA	ATP	switch fluorescence ratio	0.986
CGGAAAGGGA	ATP	switch fluorescence ratio	1.01
GGGAAATTAG	ATP	switch fluorescence ratio	1
CGGGCAGCGG	ATP	switch fluorescence ratio	0.955
GTTTGTACGA	ATP	switch fluorescence ratio	0.976
AGGTATGGTT	ATP	switch fluorescence ratio	0.984
CTATATACCA	ATP	switch fluorescence ratio	1.06
ATAACACGGC	ATP	switch fluorescence ratio	1.05
CCGAGAATCG	ATP	switch fluorescence ratio	1.02
GATTCACGA	ATP	switch fluorescence ratio	0.984
CGTGGTTGCA	ATP	switch fluorescence ratio	0.989
AAGCCTTTTT	ATP	switch fluorescence ratio	1.01
AGTTGTTGGT	ATP	switch fluorescence ratio	1.01
CGGGATAGAT	ATP	switch fluorescence ratio	1
GGTTGATATG	ATP	switch fluorescence ratio	1
GGGGTTATTG	ATP	switch fluorescence ratio	0.986
GGTTAACGTC	ATP	switch fluorescence ratio	1.03
AACGGTAATT	ATP	switch fluorescence ratio	1.1
TCCATTAGTT	ATP	switch fluorescence ratio	1.04
ACGTACATGT	ATP	switch fluorescence ratio	1.44
GGGGAGGACA	ATP	switch fluorescence ratio	1.04
CCGCGACGGG	ATP	switch fluorescence ratio	1.69
TTTAATTATG	ATP	switch fluorescence ratio	1.02

====

- Test system: ATP;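 also: ATP exposure 15 min at 22 °C before imaging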
- method: switch fluorescence ratio, 500 uM ATP over buffer (Cy3 cluster intensity, sum of 5 cycles each) (fold (ratio)); higher = stronger signal-on switching upon ATP binding; sequences stand for … in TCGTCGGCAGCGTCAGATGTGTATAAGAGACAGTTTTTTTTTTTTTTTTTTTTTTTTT…TC
- condition label: aptamer strand: ATP DNA aptamer (quencher-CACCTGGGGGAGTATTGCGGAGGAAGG + anchor), 100 nM annealed; ATP concentration: 500 uM
Please enter Y where switch fluorescence ratio is greater than or equal to 1, and N where it is lower.

chain sequence	assigned category
TTACAAGGGA	Y
AGGGCCGTAT	Y
CCGTTGTCTT	Y
AAAAATGGAG	N
CTGTTTTTGA	N
ACTCTTATAA	Y

====

- Tested on: ATP;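 also: ATP exposure 15 min at 22 °C before imaging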
- method: switch fluorescence ratio, 500 uM ATP over buffer (Cy3 cluster intensity, sum of 5 cycles each) (fold (ratio)); higher = stronger signal-on switching upon ATP binding; sequences stand for … in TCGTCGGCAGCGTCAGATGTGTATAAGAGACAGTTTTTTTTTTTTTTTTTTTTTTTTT…TC
- condition label: aptamer strand: ATP DNA aptamer (quencher-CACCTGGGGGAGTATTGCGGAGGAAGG + anchor), 100 nM annealed; ATP concentration: 500 uM
assay endpoint: switch fluorescence ratio

chain sequence	assay endpoint	result
GAAAAAAAGC	switch fluorescence ratio	1.01
GGGTAGTTGG	switch fluorescence ratio	0.998
GTTGAGTTTT	switch fluorescence ratio	0.962
AAGTGGATCT	switch fluorescence ratio	0.988
AAAATCGAGC	switch fluorescence ratio	1.02
AGAGGCGAGG	switch fluorescence ratio	0.991
TACTGGCCGG	switch fluorescence ratio	1.03
ACAACGAGGT	switch fluorescence ratio	1.02
CCCGGGGTAT	switch fluorescence ratio	1.06

====

- System: ATP;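 also: ATP exposure 15 min at 22 °C before imaging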
- method: switch fluorescence ratio, 500 uM ATP over buffer (Cy3 cluster intensity, sum of 5 cycles each) (fold (ratio)); higher = stronger signal-on switching upon ATP binding; sequences stand for … in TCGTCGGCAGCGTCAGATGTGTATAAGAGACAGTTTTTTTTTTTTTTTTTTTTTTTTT…TC
- condition label: aptamer strand: ATP DNA aptamer (quencher-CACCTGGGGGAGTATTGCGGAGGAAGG + anchor), 100 nM annealed; ATP concentration: 500 uM
Entries and their measured switch fluorescence ratio follow.
assay endpoint: switch fluorescence ratio

chain sequence	system	result
ATCAGTTTGG	ATP	1.01
TATGACTTTG	ATP	1.03
GCTTGGGGGA	ATP	0.998
AATAAGAAAT	ATP	0.994
TTCAAGATGG	ATP	0.992
CATGATAAT	ATP	0.998
CAATGTTAGA	ATP	1
TGGTAAAGCA	ATP	1.06

====

- System: ATP;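 also: ATP exposure 15 min at 22 °C before imaging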
- method: switch fluorescence ratio, 500 uM ATP over buffer (Cy3 cluster intensity, sum of 5 cycles each) (fold (ratio)); higher = stronger signal-on switching upon ATP binding; sequences stand for … in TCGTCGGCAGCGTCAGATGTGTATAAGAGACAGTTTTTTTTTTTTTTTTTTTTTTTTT…TC
- condition label: aptamer strand: ATP DNA aptamer (quencher-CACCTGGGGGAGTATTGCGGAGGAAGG + anchor), 100 nM annealed; ATP concentration: 500 uM

chain sequence	system	switch fluorescence ratio
ATAATTTGAC	ATP	1.04
TGAGTCGTTG	ATP	0.972
AGTCGGGGGG	ATP	0.989
GTAGGGGGGG	ATP	0.999
CCAGAGTGTT	ATP	1.33
TGGGGGCGCC	ATP	0.982
AAGAGTAGGA	ATP	0.989
TCAGGAATTT	ATP	1.68
TTTCCGCAGG	ATP	1.24
GCTTAAATTT	ATP	1
CGAAGGGTCC	ATP	0.959
CGGGTTAAGT	ATP	1.03
ATGAGGCCTT	ATP	1.01
ATACTATTTT	ATP	0.996
GACCGAGTTC	ATP	1
TGATTATGTT	ATP	1.04
GGAAATATTA	ATP	1.04
GAGAGCTGCG	ATP	1
TTGTTTAGGG	ATP	0.999
ACCGTGAAGG	ATP	0.999
TTAGAGGCGT	ATP	1.01
CAGAGGGACT	ATP	1.01
TTTTTGTCGT	ATP	0.983
GTCAGCGGTG	ATP	0.999
AGGTGGGCAG	ATP	0.984
GGACCGCCTG	ATP	1.01
GCAAGAACAG	ATP	1.04
GGGATAGTTT	ATP	1
ATTGGGAGTA	ATP	0.988
AGGGTTGACA	ATP	0.981
GGTTGGCATA	ATP	0.984
TTGTTTAACT	ATP	1.02
AAAGCCGTAG	ATP	1
TTTTGTTTA	ATP	0.984
GGGTAATGAG	ATP	1
GTAATAGTGT	ATP	0.981
TAGATAGGGA	ATP	1.01
TTTTAATGGT	ATP	1.02
